- ASSAY TEXT: GFP drop in mixed WT/humanized-ribosome E. coli culture – GFP/RFP fluorescence, OD600, single point, bacterial rRNA inhibitor project, primary screen (AID 720706)
- CONDITION DESCRIPTION: E. coli WT GFP vs humanized-ribosome RFP mutants, 24 h; measured here: RFP humanized mutant strains, DMSO median 0, no signal -100, concentration not given here
About 5,500 (1.6%) of roughly 350,000 compounds were called active. Only a selection was taken, and actives are over-represented in it overall.
EXPERIMENTAL ENDPOINT: RFP signal change (%)
Numbers only, in %.

Example entries begin here.
[
  {
    "MOLECULE SMILES": "COc1cccc(/C=C/C(=O)Nc2ccc3c(c2)OCCO3)c1",
    "DISPLAY UNIT": "%",
    "MEASURED NUMBER": 4.27
  },
  {
    "MOLECULE SMILES": "C[C@H](CO)N1C[C@H](C)[C@H](CN(C)C(=O)C2CC2)OCc2ccccc2-c2ccccc2C1=O",
    "DISPLAY UNIT": "%",
    "MEASURED NUMBER": -2.73
  },
  {
    "MOLECULE SMILES": "O=S(=O)(NCCOc1cccc2cccnc12)c1ccc(F)cc1",
    "DISPLAY UNIT": "%",
    "MEASURED NUMBER": 1.43
  },
  {
    "MOLECULE SMILES": "COc1cccc(C(=O)NNC(=O)/C=C/c2ccccc2)c1",
    "DISPLAY UNIT": "%",
    "MEASURED NUMBER": 3
  },
  {
    "MOLECULE SMILES": "COc1ccccc1OCCCC(=O)Nc1ccc2c(c1)OCCO2",
    "DISPLAY UNIT": "%",
    "MEASURED NUMBER": -2.87
  }
]

Attention now turns to another entry.
// query If you can, please state the reported RFP signal change value of COCC(=O)N1CC(=O)N2[C@@H](CO)[C@@H](c3ccc(C#CC(C)C)cc3)[C@@H]2C1 .
// result -1.33

----------
- ASSAY TEXT: GFP drop in mixed WT/humanized-ribosome E. coli culture – GFP/RFP fluorescence, OD600, single point, bacterial rRNA inhibitor project, primary screen (AID 720706)
- CONDITION DESCRIPTION: E. coli WT GFP vs humanized-ribosome RFP mutants, 24 h; measured here: OD600 growth, DMSO median 0, no signal -100
The campaign covered roughly 350,000 compounds. About 5,500 (1.6%) were called active. The full list was thinned out, with actives kept by preference.
EXPERIMENTAL ENDPOINT: OD600 change (%)
Give bare numbers, in %.

Example entries begin here.
[
  {
    "MOLECULE SMILES": "O=C(Nc1ccc(N2CCN(C(=O)c3ccccc3)CC2)c(Cl)c1)c1ncn[nH]1",
    "OD600 change, %": -14.7
  },
  {
    "MOLECULE SMILES": "C[C@@H]1CN([C@H](C)CO)C(=O)c2ccccc2-c2ccccc2CO[C@H]1CN(C)S(=O)(=O)c1ccsc1",
    "OD600 change, %": -1.1
  },
  {
    "MOLECULE SMILES": "Nc1ccn([C@@H]2O[C@H](C(=O)N[C@H]3CCCCNC3=O)[C@@H](O)[C@H]2O)c(=O)n1",
    "OD600 change, %": 2.48
  },
  {
    "MOLECULE SMILES": "COCCNC(=O)C[C@@H]1C[C@@H]2c3cc(NS(=O)(=O)c4ccccc4)ccc3O[C@@H]2[C@H](CO)O1",
    "OD600 change, %": 4
  },
  {
    "MOLECULE SMILES": "C[C@@H]1CCCCO[C@H](CN(C)C(=O)NC2CCCCC2)[C@@H](C)CN([C@H](C)CO)C(=O)c2cc(NC(=O)CCC(F)(F)F)ccc2O1",
    "OD600 change, %": -3.94
  },
  {
    "MOLECULE SMILES": "Cc1onc(-c2c(F)cccc2Cl)c1C(=O)Nc1cccc(S(=O)(=O)N2CCCCC2)c1",
    "OD600 change, %": -20.2
  },
  {
    "MOLECULE SMILES": "Cc1ccccc1NC(=O)c1cc(S(=O)(=O)Nc2cccc(C(=O)O)c2)ccc1Cl",
    "OD600 change, %": 8.39
  },
  {
    "MOLECULE SMILES": "C=CCOC(=O)c1ccccc1C(=O)OCC=C",
    "OD600 change, %": 7.92
  },
  {
    "MOLECULE SMILES": "C[C@@H]1CN([C@@H](C)CO)C(=O)c2cc(NC(=O)Nc3ccc(C(F)(F)F)cc3)ccc2O[C@@H]1CN(C)Cc1ccncc1",
    "OD600 change, %": -38.7
  },
  {
    "MOLECULE SMILES": "C[C@H](CO)N1C[C@H](C)[C@H](CN(C)C(=O)Nc2cccc3ccccc23)OCCCC[C@H](C)Oc2ccc(NC(=O)Nc3ccc4c(c3)OCO4)cc2C1=O",
    "OD600 change, %": 5.33
  }
]

Field: OD600 change. Fill in for each record below.
1. COc1ccc2c3c(n(C)c2c1)[C@H](CO)N(CC1CCCCC1)CC31CCN(Cc2nccs2)CC1
2. O=C(Cc1ccc(Cl)cc1)NC(=S)Nc1ccccc1O
3. COC(=O)C1=CN(Cc2ccc(OC)c(OC)c2)C=C(C(=O)OC)C1c1cccs1
4. C/C=C/c1ccc2c(c1)O[C@H](CN(C)C(=O)Cc1ccncc1)[C@@H](C)CN([C@@H](C)CO)S2(=O)=O

// result
1: -34.3; 2: -1.88; 3: -22.2; 4: -5.29

Field: OD600 change. Fill in for each record below.
1. CCC(=O)N1CC2(CN(Cc3cccnc3)C2)c2c(n(C)c3cc(OC)ccc23)[C@@H]1CO
2. Cc1ccc(C(=O)Nc2ccccc2-c2ccccc2)cc1S(=O)(=O)Nc1ccccc1
3. N#C[C@H]1[C@H](c2ccccc2-c2ccc(F)cc2)[C@H](CO)N1C(=O)Cc1ccncc1
4. Cc1cccc(NC(=S)NCCc2ccc(Cl)cc2)c1C

// result
1. -2.19
2. -30.9
3. 7.17
4. -24.2

----------
- ASSAY TEXT: GFP drop in mixed WT/humanized-ribosome E. coli culture – GFP/RFP fluorescence, OD600, single point, bacterial rRNA inhibitor project, primary screen (AID 720706)
- CONDITION DESCRIPTION: E. coli WT GFP vs humanized-ribosome RFP mutants, 24 h; measured here: RFP humanized mutant strains, DMSO median 0, no signal -100, concentration not given here
Out of some 350,000 compounds screened, about 5,500 (1.6%) were called active. The entries come from a sample that favours actives as a whole.
EXPERIMENTAL ENDPOINT: RFP signal change (%)
Give bare numbers, in %.

Example entries begin here.
[
  {
    "COMPOUND": "COc1ccc(CCNC(=O)COC(=O)/C=C/c2cccs2)cc1OC",
    "MEASURED NUMBER": 6.24
  },
  {
    "COMPOUND": "O=[N+]([O-])c1cc2ccccc2nc1-c1ccccc1",
    "MEASURED NUMBER": -0.455
  },
  {
    "COMPOUND": "O=[N+]([O-])c1cc([N+](=O)[O-])c2cccnc2c1O",
    "MEASURED NUMBER": 3.26
  },
  {
    "COMPOUND": "CCNC(=O)[C@H]1[C@H](CO)[C@H]2Cn3c(cccc3=O)[C@@H]1N2Cc1cc(F)ccc1F",
    "MEASURED NUMBER": 1
  },
  {
    "COMPOUND": "CCCCN1CC(C)(C)[C@H](CC(=O)Nc2ccc(Br)cc2)C1=O",
    "MEASURED NUMBER": -4.18
  }
]

Field: RFP signal change. Fill in for each record below.
1. O=C(CCNC(=O)c1ccc(Br)cc1)Nc1cccc(S(=O)(=O)N2CCCCC2)c1
2. CC(=O)N1[C@@H]2c3ccc(-c4ccccc4)c(=O)n3C[C@@H]2[C@@H](CO)[C@@H]1C(=O)NCc1ccccc1F
3. CC(C)NC(=O)Nc1ccc2c(c1)CC(=O)N([C@@H](C)CO)C[C@@H](C)[C@H](CN(C)Cc1ccc(C(F)(F)F)cc1)O2
4. COc1ccccc1Oc1nc(-c2cccnc2)nc2ccccc12
5. COc1ccc(CCNC(=O)Cc2ccc(C)cc2)cc1OC
6. CC(NC(=O)c1ccccc1)C(=O)OCC(=O)Nc1cccc(S(=O)(=O)N2CCCC2)c1 (stereo not given)
7. Cc1nc(-c2ccc([N+](=O)[O-])cc2)c(-c2ccccc2)o1

// result
1: 1.03; 2: 0.825; 3: -0.097; 4: -3.61; 5: -4.01; 6: -0.0785; 7: 13.4

Field: RFP signal change. Fill in for each record below.
1. O=C(Nc1ccccc1N1CCN(C(=O)c2ccccc2)CC1)c1ccco1
2. CCCNC(=O)C[C@H]1CC[C@H]2[C@@H](COC[C@H](O)CN2C(=O)Nc2c(C)noc2C)O1
3. CN1CCN(c2ccc(NC(=O)c3ccc4c(c3)OCCO4)cc2Cl)CC1
4. CN1c2ccc(-c3ccccc3)cc2[C@@H]2[C@@H](CCN2C(=O)NC2CCCC2)[C@H]1CO

// result
[-0.948, -4.75, -7.15, 16.9]

Field: RFP signal change. Fill in for each record below.
1. CC1(C)CN(CCc2ccccc2)C(=O)[C@H]1CC(=O)Nc1ccc(Br)cc1
2. O=C(c1ccc(N2CCOCC2)c([N+](=O)[O-])c1)N1CCN(c2ccccc2F)CC1
3. O=C(Nc1ccc(N2CCN(C(=O)c3ccccc3)CC2)c(Cl)c1)c1ncn[nH]1
4. COc1ccccc1CCNC(=O)CSc1nnc2ccc(-c3cccnc3)nn12

// result
-0.505
-4.01
0.07
10.5
